The reported measurements were obtained from ChEMBL document CHEMBL1156597.

# CC50 per entry
system: PANC-1; experiment: Cytotoxicity against human PANC1 cells after 48 hrs by SRB assay; assay type: functional; details: PANC-1, 48 h, read-out: LC50 (the source's name)
# number only, unit nM dropped from output

The following compounds have reported results that may help.
C/C=C1\NC(=O)[C@H](Cc2ccccc2)NC(=O)[C@@H](C(C)C)NC(=O)[C@@H]([C@H](C)CC)NC(=O)[C@H](NC(=O)[C@H](NC(=O)[C@H](CCCN)NC(=O)[C@H]2CCCN2C(=O)[C@H](NC(=O)[C@@H](NC(=O)[C@@H](NC(=O)[C@H](NC(=O)CCCC(C)C)C(C)C)[C@@H](C)O)C(C)C)C(C)C)[C@H](C)CC)COC(=O)[C@H](C(C)C)NC1=O : 8970
C/C=C1\NC(=O)[C@H](Cc2ccccc2)NC(=O)[C@@H](C(C)C)NC(=O)[C@@H]([C@H](C)CC)NC(=O)[C@H](NC(=O)[C@H](NC(=O)[C@H](CCCN)NC(=O)[C@H]2CCCN2C(=O)[C@H](NC(=O)[C@@H](NC(=O)[C@@H](NC(=O)[C@@H](CC2CCCCC2)NC(=O)CCCC(C)C)[C@@H](C)O)C(C)C)C(C)C)[C@H](C)CC)[C@H](C)OC(=O)[C@H](C(C)C)NC1=O : 2440

The reported CC50 of the compound C/C=C1\NC(=O)[C@H](Cc2ccccc2)NC(=O)[C@@H](C(C)C)NC(=O)[C@@H]([C@H](C)CC)NC(=O)[C@H](NC(=O)[C@H](NC(=O)[C@H](CCCN)NC(=O)[C@H]2CCCN2C(=O)[C@H](NC(=O)[C@@H](NC(=O)[C@@H](NC(=O)[C@H](NC(=O)CCCCCCCCCCCCCCCCCCC)C(C)C)[C@@H](C)O)C(C)C)C(C)C)[C@H](C)CC)[C@H](C)OC(=O)[C@H](C(C)C)NC1=O was 423

* * *

tested on: DU-145; test: Cytotoxicity against human DU145 cells after 48 hrs by SRB assay; format: functional, cell-based; conditions: Homo sapiens, DU-145, 48 h
MEASURE_NAME: TGI (nM)
Express it in nM; write the number only.

Solved entries:
C/C=C1\NC(=O)[C@H](Cc2ccccc2)NC(=O)[C@@H](C(C)C)NC(=O)[C@@H]([C@H](C)CC)NC(=O)[C@H](NC(=O)[C@H](NC(=O)[C@H](CCCN)NC(=O)[C@H]2CCCN2C(=O)[C@H](NC(=O)[C@@H](NC(=O)[C@@H](NC(=O)[C@@H](C)NC(=O)CCCC(C)C)[C@@H](C)O)C(C)C)C(C)C)[C@H](C)CC)[C@H](C)OC(=O)[C@H](C(C)C)NC1=O : 1480
C/C=C1\NC(=O)[C@H](Cc2ccccc2)NC(=O)[C@@H](C(C)C)NC(=O)[C@@H]([C@H](C)CC)NC(=O)[C@H](NC(=O)[C@H](NC(=O)[C@H](CCCN)NC(=O)[C@H]2CCCN2C(=O)[C@H](NC(=O)[C@@H](NC(=O)[C@@H](NC(=O)[C@H](NC(=O)CC[C@H](C)CC)C(C)C)[C@@H](C)O)C(C)C)C(C)C)[C@H](C)CC)[C@H](C)OC(=O)[C@H](C(C)C)NC1=O : 1270

The measured TGI associated with CC[C@@H](C)[C@@H](NC(=O)[C@H](CCCN)NC(=O)[C@H]1CCCN1C(=O)[C@H](NC(=O)[C@@H](NC(=O)[C@@H](NC(=O)[C@H](NC(=O)CCCC(C)C)C(C)C)[C@@H](C)O)C(C)C)C(C)C)C(=O)N[C@H]1C(=O)N[C@H]([C@H](C)CC)C(=O)N[C@H](C(C)C)C(=O)N[C@@H](Cc2ccccc2)C(=O)NCC(=O)N[C@@H](C(C)C)C(=O)O[C@H]1C reads 1160
